The values you see were collected from patent US11878970B2.

Molecular target: PI3K-α (PIK3CA) H1047R mutant, p110α/p85α complex (Homo sapiens, UniProt P42336, H1047R)
Construct: Recombinant, catalytically active human full length PIK3KA Wild-type and H1047R mutant; 6×His (N); purchased EMD Millipore Sigma 14-792M
Sequence (P42336 whole entry H1047R): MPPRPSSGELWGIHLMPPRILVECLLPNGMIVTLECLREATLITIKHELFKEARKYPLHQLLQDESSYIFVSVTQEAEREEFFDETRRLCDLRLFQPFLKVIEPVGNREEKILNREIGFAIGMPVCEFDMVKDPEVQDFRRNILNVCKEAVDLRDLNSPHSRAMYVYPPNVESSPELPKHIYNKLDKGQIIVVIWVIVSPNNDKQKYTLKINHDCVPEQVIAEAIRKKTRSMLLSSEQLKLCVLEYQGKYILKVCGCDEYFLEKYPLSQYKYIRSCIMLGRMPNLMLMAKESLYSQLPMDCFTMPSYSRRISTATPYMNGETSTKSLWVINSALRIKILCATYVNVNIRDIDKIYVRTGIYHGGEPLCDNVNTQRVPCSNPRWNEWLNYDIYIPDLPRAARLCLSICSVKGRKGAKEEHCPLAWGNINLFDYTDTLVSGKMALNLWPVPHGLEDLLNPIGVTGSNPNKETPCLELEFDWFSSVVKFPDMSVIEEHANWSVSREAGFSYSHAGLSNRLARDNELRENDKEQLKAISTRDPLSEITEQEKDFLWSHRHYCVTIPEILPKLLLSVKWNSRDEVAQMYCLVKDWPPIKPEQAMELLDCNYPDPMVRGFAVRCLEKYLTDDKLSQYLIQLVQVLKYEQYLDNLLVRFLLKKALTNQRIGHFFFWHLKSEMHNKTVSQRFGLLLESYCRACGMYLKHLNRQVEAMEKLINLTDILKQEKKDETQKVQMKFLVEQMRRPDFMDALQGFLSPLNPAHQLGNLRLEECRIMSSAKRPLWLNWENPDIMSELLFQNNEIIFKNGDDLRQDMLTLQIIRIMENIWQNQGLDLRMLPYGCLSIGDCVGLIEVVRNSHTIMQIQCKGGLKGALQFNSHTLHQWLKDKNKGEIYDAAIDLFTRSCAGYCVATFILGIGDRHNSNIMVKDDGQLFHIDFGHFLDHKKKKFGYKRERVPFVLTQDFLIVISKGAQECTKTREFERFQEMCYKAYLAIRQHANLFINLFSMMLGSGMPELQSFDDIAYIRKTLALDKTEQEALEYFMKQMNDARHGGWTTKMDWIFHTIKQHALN
Sequence (P27986 whole entry partner): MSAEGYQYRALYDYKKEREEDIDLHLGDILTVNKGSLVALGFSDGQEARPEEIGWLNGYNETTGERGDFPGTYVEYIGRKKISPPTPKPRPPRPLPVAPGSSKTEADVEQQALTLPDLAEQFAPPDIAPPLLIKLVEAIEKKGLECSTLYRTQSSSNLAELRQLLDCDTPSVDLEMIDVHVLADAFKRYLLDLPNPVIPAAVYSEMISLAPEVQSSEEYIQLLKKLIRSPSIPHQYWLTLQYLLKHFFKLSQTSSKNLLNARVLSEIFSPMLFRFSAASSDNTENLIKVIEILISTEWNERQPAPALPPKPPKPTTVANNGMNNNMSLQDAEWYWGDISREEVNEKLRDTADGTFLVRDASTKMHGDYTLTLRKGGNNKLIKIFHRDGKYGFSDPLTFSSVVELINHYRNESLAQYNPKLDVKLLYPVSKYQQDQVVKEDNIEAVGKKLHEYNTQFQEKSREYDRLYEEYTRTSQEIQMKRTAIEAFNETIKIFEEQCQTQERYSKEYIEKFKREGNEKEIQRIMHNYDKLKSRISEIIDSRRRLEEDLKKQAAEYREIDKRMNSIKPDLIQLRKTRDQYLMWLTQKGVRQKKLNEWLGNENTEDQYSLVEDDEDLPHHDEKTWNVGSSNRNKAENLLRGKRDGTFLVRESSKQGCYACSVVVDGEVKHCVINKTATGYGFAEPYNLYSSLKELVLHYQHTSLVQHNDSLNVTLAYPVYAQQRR
Assay: PI3K-alpha kinase (PIK3CA) biochemical activity, ADP-Glo, H1047R mutant
Conditions: Soy PI lipid substrate
Description: PI3K-Alpha Kinase (PIK3CA) Activity, Wild-Type and H1047R Mutant and Determining IC50 Values for Inhibitors Recombinant, catalytically active human full length PIK3KA Wild-type and H1047R mutant were purchased as 1:1 complex of N-terminal 6×his tagged p110α (catalytic) and untagged p85α (regulatory subunit) from EMD Millipore Sigma (cat. no. 14-602M and 14-792M, respectively). […]
pIC50: −log10 of the molar value.
quantity-name: pIC50

>>> value_observed("CC(Nc1ccc(Cl)nc1C(=O)O)c1cc(C(F)(F)F)cc2c(=O)cc(-c3cc4ccccc4[nH]3)oc12 (single isomer, unassigned)")
"> 6.30"

Recorded pIC50 of Cc1cc(C(C)Nc2ccccc2C(=O)O)c2oc(-c3ccc4nn(C)cc4c3)cc(=O)c2c1 (single isomer, unassigned) [Example 75] , please. > 6.30

Recorded pIC50 of CC(Nc1ccccc1C(=O)O)c1cc(F)cc2c(=O)cc(-c3ccc4nn(C)cc4c3)oc12 (single isomer, unassigned) [Example 156] , please. 5.30 to 6.00

* * *

target: PI3K-α (PIK3CA) wild-type (WT), p110α/p85α complex (Homo sapiens, UniProt P42336); construct: Recombinant, catalytically active human full length PIK3KA Wild-type and H1047R mutant; 6×His (N); purchased EMD Millipore Sigma 14-602M; assay: PI3K-alpha kinase (PIK3CA) biochemical activity, ADP-Glo, wild-type; conditions: Soy PI lipid substrate
Each item that follows carries a reported IC50.

>>> value_observed("Cc1cc(C(C)Nc2ccccc2C(=O)O)c2oc(-c3c[nH]c4ccccc34)c(C)c(=O)c2c1 (single isomer, unassigned) [Example 154]")
"1 to 5 µM"
>>> value_observed("Cc1cc(C(C)Nc2ccccc2C(=O)O)c2oc(-c3ccc4cnncc4c3)cc(=O)c2c1 (single isomer, unassigned) [Example 47]")
"1 to 5 µM"
>>> value_observed("Cc1cc(C(C)Nc2ccccc2C(=O)O)c2oc(-c3cc4cnccc4o3)cc(=O)c2c1 (single isomer, unassigned) [Example 22]")
"0.5 to 1 µM"
>>> value_observed("Cc1cc(C(C)Nc2ccccc2C(=O)O)c2oc(-c3ccc4cc(C)[nH]c4n3)cc(=O)c2c1 (single isomer, unassigned) [Example 20]")
"1 to 5 µM"

Recorded IC50 of Cc1cc(C(C)Nc2ccccc2C(=O)O)c2oc(-n3ncc4c(F)cccc43)cc(=O)c2c1 (single isomer, unassigned) [Example 86] , please. 0.5 to 1 µM

Recorded IC50 of Cc1cc(C(C)Nc2ccccc2C(=O)O)c2oc(-c3cccc4cn(C)nc34)cc(=O)c2c1 (single isomer, unassigned) [Example 116] , please. > 10 µM

Recorded IC50 of Cc1cc(C(C)Nc2ccccc2C(=O)O)c2oc(-c3cnc4nn(C)cc4c3)cc(=O)c2c1 (single isomer, unassigned) [Example 41] , please. 5 to 10 µM

Recorded IC50 of Cc1cc(C(C)Nc2ccccc2C(=O)O)c2oc(-c3ccc4[nH]ncc4c3)cc(=O)c2c1 (single isomer, unassigned) [Example 60] , please. 0.5 to 1 µM

Recorded IC50 of Cc1cc([C@@H](C)Nc2ccc(Br)nc2C(=O)O)c2oc(-c3ccc4nc(C)sc4n3)c(C)c(=O)c2c1 [Example 245] , please. < 0.5 µM

Recorded IC50 of Cc1cc(C(C)Nc2ccccc2C(=O)O)c2oc(-c3cccn4ccnc34)cc(=O)c2c1 (single isomer, unassigned) [Example 127] , please. 5 to 10 µM

* * *

Each item that follows carries a reported pIC50.
biological target: PI3K-α (PIK3CA) H1047R mutant, p110α/p85α complex (Homo sapiens, UniProt P42336, H1047R); construct: Recombinant, catalytically active human full length PIK3KA Wild-type and H1047R mutant; 6×His (N); purchased EMD Millipore Sigma 14-792M; assay: PI3K-alpha kinase (PIK3CA) biochemical activity, ADP-Glo, H1047R mutant; conditions: Soy PI lipid substrate
pIC50: −log10 of the molar value.

>>> value_observed("Cc1cc(C(C)Nc2ccccc2C(=O)O)c2oc(-c3ccc4cc[nH]c4n3)cc(=O)c2c1 (single isomer, unassigned) [Example 4]")
"> 6.30"
>>> value_observed("Cc1c(-c2cc3ccccc3[nH]2)oc2c(C(C)Nc3ccccc3C(=O)O)cc(F)cc2c1=O (single isomer, unassigned) [Example 129]")
"> 6.30"
>>> value_observed("Cc1cc(C(C)Nc2ccccc2C(=O)O)c2oc(-c3c4ccccc4nn3C)cc(=O)c2c1 (single isomer, unassigned) [Example 119]")
"5.30 to 6.00"

Recorded pIC50 of Cc1cc([C@@H](C)Nc2ccc(C)nc2C(=O)O)c2oc(-c3ccc4nc(C)sc4n3)c(C)c(=O)c2c1 [Example 265] , please. > 6.30

Recorded pIC50 of Cc1cc(C(C)Nc2ccccc2C(=O)O)c2oc(-c3ccn4nccc4c3)cc(=O)c2c1 (single isomer, unassigned) [Example 113] , please. > 6.30

Recorded pIC50 of Cc1cc(C(C)Nc2ccccc2C(=O)O)c2oc(-c3ccc4nn(C)cc4c3)cc(=O)c2c1 (single isomer, unassigned) [Example 8] , please. > 6.30

Recorded pIC50 of CC(Nc1ccc(Cl)nc1C(=O)O)c1cc(C(F)(F)F)cc2c(=O)cc(-c3ccc4c(cnn4C)c3)oc12 (single isomer, unassigned) [Example 168] , please. > 6.30

Recorded pIC50 of Cc1cc([C@@H](C)Nc2cccnc2C(=O)O)c2oc(-c3nn(C)c4ccccc34)cc(=O)c2c1 [Example 232] , please. 6.00 to 6.30

Recorded pIC50 of Cc1cc(C(C)Nc2ccccc2C(=O)O)c2oc(-n3ncc4c(C)cccc43)cc(=O)c2c1 (single isomer, unassigned) [Example 88] , please. > 6.30

* * *

molecular target: PI3K-α (PIK3CA) wild-type (WT), p110α/p85α complex (Homo sapiens); construct: Recombinant, catalytically active human full length PIK3KA Wild-type and H1047R mutant; 6×His (N); purchased EMD Millipore Sigma 14-602M; test: PI3K-alpha kinase (PIK3CA) biochemical activity, ADP-Glo, wild-type; conditions: Soy PI lipid substrate
pIC50: −log10 of the molar value.
quantity-name: pIC50

The examples below pair each entry with its known result.
>>> value_observed("Cc1cc(C(C)Nc2ccccc2C(=O)O)c2oc(-c3ccc4cc[nH]c4c3)cc(=O)c2c1 (stereo not drawn) [Example 18]")
"5.30 to 6.00"
>>> value_observed("Cc1cc([C@@H](C)Nc2ccc(Cl)cc2C(=O)O)c2oc(-c3ccc4cnn(C)c4c3)cc(=O)c2c1")
"6.00 to 6.30"
>>> value_observed("Cc1cc(C(C)Nc2ccccc2C(=O)O)c2oc(-c3ccc4[nH]nc(C)c4c3)cc(=O)c2c1 (single isomer, unassigned)")
"6.00 to 6.30"
>>> value_observed("Cc1cc(C(C)Nc2ccccc2C(=O)O)c2oc(-c3cc(Cl)c4nn(C)cc4c3)cc(=O)c2c1 (single isomer, unassigned)")
"6.00 to 6.30"

Recorded pIC50 of Cc1cc(C(C)Nc2ccccc2C(=O)O)c2oc(-c3ccn4c(-c5ncco5)c(C)nc4c3)cc(=O)c2c1 (single isomer, unassigned) , please. < 5.00

Recorded pIC50 of Cc1cc(C(C)Nc2ccccc2C(=O)O)c2oc(-c3ccc4c(C)nn(C)c4c3)cc(=O)c2c1 (single isomer, unassigned) , please. 6.00 to 6.30

* * *

target: PI3K-α (PIK3CA) H1047R mutant, p110α/p85α complex (Homo sapiens, UniProt P42336, H1047R); construct: Recombinant, catalytically active human full length PIK3KA Wild-type and H1047R mutant; 6×His (N); purchased EMD Millipore Sigma 14-792M; experiment: PI3K-alpha kinase (PIK3CA) biochemical activity, ADP-Glo, H1047R mutant; details: Soy PI lipid substrate
Each item that follows carries a reported IC50.

>>> value_observed("Cc1cc(C(C)Nc2ccc(Cl)nc2C(=O)O)c2oc(-c3ccc4nn(C)cc4c3)cc(=O)c2c1 (single isomer, unassigned) [Example 83]")
"< 500 nM"
>>> value_observed("Cc1cc(C(C)Nc2ccccc2C(=O)O)c2oc(-c3ccc4cn[nH]c4c3)c(C)c(=O)c2c1 (single isomer, unassigned)")
"< 500 nM"

Recorded IC50 of Cc1cc(C(C)Nc2ccccc2C(=O)O)c2oc(-c3cc(C)c4nn(C)cc4c3)cc(=O)c2c1 (single isomer, unassigned) [Example 126] , please. < 500 nM

Recorded IC50 of Cc1cc([C@@H](C)Nc2cccnc2C(=O)O)c2oc(-c3cc(C)c4nn(C)cc4c3)cc(=O)c2c1 , please. 1000 to 5000 nM

Recorded IC50 of Cc1cn2nc(-c3cc(=O)c4cc(C(F)(F)F)cc(C(C)Nc5ccccc5C(=O)O)c4o3)ccc2n1 (single isomer, unassigned) , please. < 500 nM

Recorded IC50 of Cc1cc(C(C)Nc2ccccc2C(=O)O)c2oc(-c3cccc4c3cnn4C)cc(=O)c2c1 (single isomer, unassigned) , please. < 500 nM

Recorded IC50 of CC(Nc1ccccc1C(=O)O)c1cc(F)cc2c(=O)cc(-c3cc4ccccc4[nH]3)oc12 (single isomer, unassigned) , please. < 500 nM

Recorded IC50 of Cc1cc(C(C)Nc2ccccc2C(=O)O)c2oc(-c3ccc4c(c3)CN(C)C4=O)c(C)c(=O)c2c1 (single isomer, unassigned) , please. < 500 nM

Recorded IC50 of Cc1cc(C(C)Nc2ccccc2C(=O)O)c2oc(-c3ccc4cn[nH]c4n3)cc(=O)c2c1 (single isomer, unassigned) , please. < 500 nM

Recorded IC50 of Cc1cc(C(C)Nc2ccccc2C(=O)O)c2oc(-c3cnc4nn(C)cc4c3)cc(=O)c2c1 (single isomer, unassigned) [Example 41] , please. 1000 to 5000 nM

Recorded IC50 of Cc1cc(C(C)Nc2ccccc2C(=O)O)c2oc(-c3ccc4c(c3)CN(C)C4=O)cc(=O)c2c1 (stereo not shown) [Example 30] , please. < 500 nM

Recorded IC50 of Cc1cc(C(C)Nc2ccccc2C(=O)O)c2oc(-c3ccc4nn(C)cc4n3)cc(=O)c2c1 (single isomer, unassigned) , please. < 500 nM

Recorded IC50 of C[C@@H](Nc1ccc(Cl)nc1C(=O)O)c1cc(C(F)(F)F)cc2c(=O)cc(-c3ccc4nn(C)cc4c3)oc12 , please. < 500 nM
